# Test system: AGS cells expressing KRAS G12D
# ASSAY_OVERVIEW: Phospho-ERK1/2(THR202/TYR204) HTRF assay
# Type: cell-based
# TEST_PARAMETERS: 2 hours incubation, read-out: AGS p-ERK IC50
Provide the reported IC50 of each item.
Field format: number, assumed nM, no unit text.

What value of measured IC50 is listed for C#Cc1cccc2cc(O)cc(-c3c(C4CC4)cc4c(N5CC6CCC(C5)N6)nc(OCC5(CN6CCOCC6)CC5)nc4c3F)c12 (single isomer, unassigned) [Compound 38B] ? 12.4

What value of measured IC50 is listed for C#Cc1cccc2cc(O)cc(-c3c(SC(F)(F)F)cc4c(N5CC6CCC(C5)N6)nc(OCC5(CN6CCOCC6)CC5)nc4c3F)c12 (single isomer, unassigned) [Compound 59B] ? 10.8

What value of measured IC50 is listed for C#Cc1cccc2cc(O)cc(-c3c(C#N)cc4c(N5CC6CCC(C5)N6)nc(OCC5(CN6CCOCC6)CC5)nc4c3F)c12 (single isomer, unassigned) [Compound 60B] ? 6.96

What value of measured IC50 is listed for C#Cc1cccc2cc(O)cc(-c3c(Cl)cc4c(N5CC6CCC(C5)N6)nc(OC[C@@]56CCCN5C[C@H](F)C6)nc4c3F)c12 (single isomer, unassigned) [Compound 72B] ? 1.51

What value of measured IC50 is listed for C#Cc1cccc2cc(O)cc(-c3c(C)cc4c(N5CC6CCC(C5)N6)nc(OCC5(CN6CCOCC6)CC5)nc4c3F)c12 (single isomer, unassigned) [Compound 40B] ? 1.97

----------
# Test system: AGS
# ASSAY_OVERVIEW: Cell growth inhibition assay (AGS)
# Assay type: cell-based
# TEST_PARAMETERS: Homo sapiens, 144 h, 6 days incubation, CellTiter-Glo
PROPERTY_MEASURED: IC50 (nM)
Field format: number, assumed nM, no unit text.

What value of measured IC50 is listed for C#Cc1cccc2cc(O)cc(-c3cc4nc(OCC5(CN6CCOCC6)CC5)nc(N5CC6CCC(C5)N6)c4cc3CC)c12 [Compound 109] ? 28.3

What value of measured IC50 is listed for C#Cc1cccc2cc(O)cc(-c3c(Cl)cc4c(N5CC6CCC(C5)N6)nc(OCC5(CN6CCOCC6)CC5)nc4c3Cl)c12 [Compound 107] ? 107

What value of measured IC50 is listed for C#Cc1c(Cl)ccc2cc(O)cc(-c3c(F)cc4c(N5CC6CCC(C5)N6)nc(OCC5(CN6CCOCC6)CC5)nc4c3F)c12 [Compound 126] ? 0.486

What value of measured IC50 is listed for C#Cc1cccc2cc(O)cc(-c3cc4nc(OCC5(CN6CCOCC6)CC5)nc(N5CC6CCC(C5)N6)c4cc3F)c12 [Compound 108] ? 21.9

What value of measured IC50 is listed for C#Cc1cccc2cc(O)cc(-c3c(CCC#N)cc4c(N5CC6CCC(C5)N6)nc(OCC5(CN6CCOCC6)CC5)nc4c3F)c12 [Compound 44] ? 13.2

What value of measured IC50 is listed for CCc1cccc2cc(O)cc(-c3ccc4c(N5CC6CCC(C5)N6)nc(OCC5(CN6CCOCC6)CC5)nc4c3F)c12 [Compound 47] ? 68

What value of measured IC50 is listed for C#Cc1cccc2cc(O)cc(-c3c(F)cc4c(N5CC6CCC(C5)N6)nc(OCC5(CN6CCOCC6)CC5)nc4c3C)c12 [Compound 101] ? 39.6

----------
Provide the reported log10 of IC50 of each item.
# Test system: AGS
# ASSAY_OVERVIEW: Cell growth inhibition assay (AGS)
# Assay type: cell-based
# TEST_PARAMETERS: Homo sapiens, 144 h, 6 days incubation, CellTiter-Glo
Values reflect log10 of reported IC50 (nM).

What value of measured log10 of IC50 is listed for C#Cc1cccc2cc(O)cc(-c3cc4nc(OC[C@@]56CCCN5C[C@H](F)C6)nc(N5CC6CCC(C5)N6)c4cc3C)c12 [Compound 75] ? 0.75

What value of measured log10 of IC50 is listed for Oc1cc(Cl)c(C2CC2)c(-c2c(Cl)cc3c(N4CC5CCC(C4)N5)nc(OCC4(CN5CCOCC5)CC4)nc3c2F)c1 [Compound 133] ? 2.15

What value of measured log10 of IC50 is listed for C#Cc1cccc2cc(O)cc(-c3ccc4c(N5CC6CCC(C5)N6)nc(OCC5(CN6CCOCC6)CC5)nc4c3Cl)c12 [Compound 121] ? 1.05

What value of measured log10 of IC50 is listed for C#Cc1cccc2cc(O)cc(-c3cc4nc(OCC5(CN6CCOCC6)CC5)nc(N5CC6CCC(C5)N6)c4cc3C(F)(F)F)c12 [Compound 119] ? 1.91

What value of measured log10 of IC50 is listed for C#Cc1cccc2cc(O)cc(-c3ccc4c(N5CC6CCC(C5)N6)nc(OCC5(CN6CCCCC6)CC5)nc4c3F)c12 [Compound 131] ? 1.13

What value of measured log10 of IC50 is listed for C#Cc1cccc2cc(O)cc(-c3c(F)cc4c(N5CC6CCC(C5)N6)nc(OCC5(CN6CCOCC6)CC5)nc4c3Cl)c12 [Compound 43] ? 1.26

----------
# MEASURED_TARGET: GDP-loaded HIS-KRAS (G12D, aa 1-169) (Homo sapiens, UniProt P01116, G12D)
# Construct: GDP-loaded HIS-KRAS (G12D, aa 1-169)
# Sequence (P01116 1-169 isoform P01116-2 G12D): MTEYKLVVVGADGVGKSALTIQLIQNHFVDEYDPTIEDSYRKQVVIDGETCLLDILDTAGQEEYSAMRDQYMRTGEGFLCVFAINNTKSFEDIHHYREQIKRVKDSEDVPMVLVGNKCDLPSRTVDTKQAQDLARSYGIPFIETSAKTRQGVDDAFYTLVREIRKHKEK
# ASSAY_OVERVIEW: SOS1 catalyzed nucleotide exchange assay
# Assay type: biochemical
# TEST_PARAMETERS: SOS1 ExD, TR-FRET, 4 hours at 25° C.
pIC50: −log10 of the molar value.
Kindly return TRUE if reported pIC50 is no lower than 8; return FALSE if it is lower.

Given the entry C#Cc1cccc2cc(O)cc(-c3ccc4c(N5CCNCC5CC#N)nc(OCC5(CN6CCOCC6)CC5)nc4c3F)c12 (racemic) , answer whether its pIC50 meets or surpasses 8. FALSE

Given the entry Oc1cc(-c2c(Cl)cc3c(N4CC5CCC(C4)N5)nc(OCC4(CN5CCOCC5)CC4)nc3c2F)c2c(Cl)cccc2c1 , answer whether its pIC50 meets or surpasses 8. FALSE

Given the entry C#Cc1cccc2cc(O)cc(-c3c(Cl)cc4c(N5CC6CCC(C5)N6)nc(OCC5(CN6CCOCC6)CC5)nc4c3Cl)c12 [Compound 107] , answer whether its pIC50 meets or surpasses 8. TRUE

Given the entry C#Cc1cccc2cc(O)cc(-c3cc4nc(OCC5(CN6CCOCC6)CC5)nc(N5CC6CCC(C5)N6)c4cc3C#N)c12 , answer whether its pIC50 meets or surpasses 8. FALSE

Given the entry Oc1cc(-c2c(Cl)cc3c(N4CC5CCC(C4)N5)nc(OCC4(CN5CCOCC5)CC4)nc3c2F)c2cccc(F)c2c1 , answer whether its pIC50 meets or surpasses 8. FALSE

Given the entry C#Cc1c(F)ccc2cc(O)cc(-c3c(C4CC4)cc4c(N5CC6CCC(C5)N6)nc(OC[C@@]56CCCN5C[C@H](F)C6)nc4c3F)c12 , answer whether its pIC50 meets or surpasses 8. FALSE

Given the entry C#Cc1cccc2cc(O)cc(-c3c(Cl)cc4c(N5CC6CCC(C5)N6)nc(OCC5(CN6CCOCC6)CC5)nc4c3Cl)c12 (single isomer, unassigned) [Compound 107A] , answer whether its pIC50 meets or surpasses 8. FALSE

Given the entry C#Cc1cccc2cc(O)cc(-c3c(Cl)cc4c(N5CC6CCC(C5)N6)nc(OCC5(CN6CCOCC6)CC5)nc4c3F)c12 (single isomer, unassigned) [Compound 35A] , answer whether its pIC50 meets or surpasses 8. FALSE

Given the entry C#Cc1cccc2cc(O)cc(-c3c(C(F)(F)F)cc4c(N5CC6CCC(C5)N6)nc(OCC5(CN6CCOCC6)CC5)nc4c3F)c12 (single isomer, unassigned) [Compound 98B] , answer whether its pIC50 meets or surpasses 8. TRUE

Given the entry C#Cc1c(F)ccc2cc(O)cc(-c3c(C(C)C)cc4c(N5CC6CCC(C5)N6)nc(OCC5(CN6CCOCC6)CC5)nc4c3F)c12 , answer whether its pIC50 meets or surpasses 8. TRUE

Given the entry CCc1cccc2cc(O)cc(-c3c(Cl)cc4c(N5CC6CCC(C5)N6)nc(OCC5(CN6CCOCC6)CC5)nc4c3F)c12 , answer whether its pIC50 meets or surpasses 8. FALSE

Given the entry C#Cc1cccc2cc(O)cc(-c3c(Cl)cc4c(N5CC6CCC(C5)N6)nc(OCC5(CN6CCOCC6)CC5)nc4c3Cl)c12 (single isomer, unassigned) [Compound 107B] , answer whether its pIC50 meets or surpasses 8. TRUE

Given the entry C#Cc1cccc2cc(O)cc(-c3c(C(=C)C)cc4c(N5CC6CCC(C5)N6)nc(OCC5(CN6CCOCC6)CC5)nc4c3F)c12 , answer whether its pIC50 meets or surpasses 8. TRUE

Given the entry C#Cc1cccc2cc(O)cc(-c3ccc4c(N5CC6CCC(C5)N6)nc(OCC5(CN6CCOC[C@H]6C)CC5)nc4c3F)c12 , answer whether its pIC50 meets or surpasses 8. FALSE

Given the entry C#Cc1cccc2cc(O)cc(-c3cc4nc(OCC5(CN6CCOCC6)CC5)nc(N5CC6CCC(C5)N6)c4cc3C(F)(F)F)c12 , answer whether its pIC50 meets or surpasses 8. FALSE
